# target_or_system: human TGR5 (Homo sapiens)
# Construct: expressed in transfected cells; host or cells: HEK293
# Sequence (Q8TDU6 whole entry): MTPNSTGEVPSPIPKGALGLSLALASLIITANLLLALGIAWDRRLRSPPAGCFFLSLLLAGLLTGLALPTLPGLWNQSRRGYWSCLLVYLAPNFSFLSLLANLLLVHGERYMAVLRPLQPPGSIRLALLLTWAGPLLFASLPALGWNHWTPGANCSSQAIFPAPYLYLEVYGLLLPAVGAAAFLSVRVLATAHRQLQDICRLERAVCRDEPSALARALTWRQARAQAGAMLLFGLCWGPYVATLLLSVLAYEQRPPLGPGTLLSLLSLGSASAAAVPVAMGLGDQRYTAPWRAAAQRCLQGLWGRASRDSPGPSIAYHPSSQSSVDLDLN
# test_method_notes: Cell-based TGR5 assay (cAMP generation, HTRF)
# protocol_conditions: HEK293 cells stably transfected with human TGR5; cAMP by HTRF; 30 minutes at 37° C.; read-out: pEC50 Human TGR5 (converted)
measurement_name: EC50

Record CC(=O)N(CCSc1ccc(Cl)c(CNC2(c3cnccc3-c3ccccc3OC3CC3)CC2)c1)C[C@H](O)[C@@H](O)[C@H](O)[C@H](O)CO , field EC50: 126 to 1000 nM

Record summary for O=C(NCCCCCSc1ccc(Cl)c(COC2(c3cnccc3-c3ccccc3OC3CC3)CC2)c1)NC[C@H](O)[C@@H](O)[C@H](O)[C@H](O)CO : reported EC50 = < 100 nM

Recorded result, Cc1cc(COC2(c3cnccc3-c3ccccc3OC3CC3)CC2)c(Cl)cc1CCCCNC(=O)N(CCO)C[C@H](O)[C@@H](O)[C@H](O)[C@H](O)CO , EC50: < 100 nM

The molecule listed as N[C@@H]1[C@@H](O)[C@@H](O[C@@H]2[C@@H](O)[C@H](O[C@H]3O[C@H](CNC(=O)CCCCc4cc(Cl)c(COC5(c6cnccc6-c6ccccc6OC6CC6)CC5)cc4Cl)[C@@H](O)[C@H](O)[C@H]3O)[C@@H](N)C[C@H]2N)O[C@H](CO)[C@H]1O (stereo in doubt) has a reported EC50 of < 100 nM

get_value(item= O=C(CCCCc1cc(Cl)c(COC2(c3cnccc3-c3ccccc3OC3CC3)CC2)cc1Cl)NC[C@@H]1O[C@H](C(=O)O)[C@@H](O)[C@H](O)[C@H]1O , readout=EC50) returns < 100 nM

EC50 for Clc1ccc(Cl)c(COC2(c3cnccc3-c3ccccc3OC3CC3)COC2)c1 is < 100 nM

Reported EC50 ( CS(=O)(=O)NCCN(CCCSc1ccc(Cl)c(COC2(c3cnccc3-c3ccccc3OC3CC3)CC2)c1)C(=O)[C@@H](O)[C@@H](O)[C@H](O)[C@@H](O)CO ) = < 100 nM

# molecule O=C([C@@H](O)[C@@H](O)[C@H](O)[C@@H](O)CO)N(CCCCO)CCCCCSc1ccc(Cl)c(COC2(c3cnccc3-c3ccccc3OC3CC3)CC2)c1 ; its EC50 = < 100 nM

Entry CN(CCCCNC(=O)NC[C@H](O)[C@@H](O)[C@H](O)[C@H](O)CO)S(=O)(=O)c1cc(CNC2(c3cnccc3-c3ccccc3OC3CC3)CC2)c(Cl)cc1F ; EC50 = < 100 nM

For Clc1ccc(Cl)c(CNC2(c3cnccc3-c3ccccc3Cl)CC2)c1 the molecule record lists EC50 as 1260 to 10000 nM

The reported EC50 of the molecule O=C(O)CN1CCN(CCNC(=O)CCCCc2cc(Cl)c(COC3(c4cnccc4-c4ccccc4OC4CC4)CC3)cc2Cl)CC1 was < 100 nM
